Biological target: Human PDE2A3 enzyme (Homo sapiens)
Construct: transfected with the full-length gene; His-tag; made in house; host or cells: Sf9 insect cells
Sequence (O00408 whole entry): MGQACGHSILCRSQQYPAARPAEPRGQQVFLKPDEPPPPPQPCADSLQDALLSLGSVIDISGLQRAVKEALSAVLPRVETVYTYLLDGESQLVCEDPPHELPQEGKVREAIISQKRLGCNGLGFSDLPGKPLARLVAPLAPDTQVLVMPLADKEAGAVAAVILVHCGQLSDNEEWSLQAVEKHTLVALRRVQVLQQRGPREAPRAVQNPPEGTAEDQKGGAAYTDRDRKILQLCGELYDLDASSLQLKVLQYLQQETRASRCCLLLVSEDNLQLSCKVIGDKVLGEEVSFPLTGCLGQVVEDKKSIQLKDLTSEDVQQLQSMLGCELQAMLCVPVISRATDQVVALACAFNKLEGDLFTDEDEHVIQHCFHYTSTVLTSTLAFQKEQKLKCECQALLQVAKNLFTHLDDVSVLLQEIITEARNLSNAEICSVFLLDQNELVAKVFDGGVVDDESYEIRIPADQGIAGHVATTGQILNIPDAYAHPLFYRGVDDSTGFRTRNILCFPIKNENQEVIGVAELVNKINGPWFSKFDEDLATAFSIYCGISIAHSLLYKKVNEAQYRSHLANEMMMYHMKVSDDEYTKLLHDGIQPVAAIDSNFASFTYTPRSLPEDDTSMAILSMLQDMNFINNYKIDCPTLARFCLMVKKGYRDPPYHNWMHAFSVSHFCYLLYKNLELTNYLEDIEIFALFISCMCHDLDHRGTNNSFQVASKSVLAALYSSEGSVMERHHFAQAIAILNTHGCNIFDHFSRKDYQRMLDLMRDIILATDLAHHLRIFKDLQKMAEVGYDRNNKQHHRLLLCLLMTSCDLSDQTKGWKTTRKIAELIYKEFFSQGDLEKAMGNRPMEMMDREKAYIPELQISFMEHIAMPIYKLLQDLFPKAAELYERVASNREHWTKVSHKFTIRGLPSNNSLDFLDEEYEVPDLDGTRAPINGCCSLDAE
Assay: PDE Enzyme Inhibition Assay (SPA, [3H]cGMP)
Assay type: biochemical
Conditions: compound 10 μM; substrate [3H]cGMP 77 nM; 60 min at room temperature; duplicate
measured.property: inhibition at 10 µM (%)

[[record]]
molecule = "CCC(Oc1ccc(OC(F)(F)F)cc1)C(=O)N1CC(=O)Nc2cc(C)cnc21 (centres unmarked)"
numeric_value = 100

[[record]]
molecule = "CCC(Oc1ccc(OC(F)(F)F)cc1)C(=O)N1CC(=O)Nc2cccnc21 (centres unmarked)"
numeric_value = 100

[[record]]
molecule = "CCC(Oc1ccc(OC(F)(F)F)cc1)C(=O)N1CC(=O)Nc2ccc(C)nc21 (centres unmarked)"
numeric_value = 99

[[record]]
molecule = "CCC(Oc1ccc(-n2cccn2)cc1)C(=O)N1CC(=O)Nc2cccnc21 (centres unmarked)"
numeric_value = 99

[[record]]
molecule = "COCCC(Oc1ccc(OC(F)(F)F)cc1)C(=O)N1CC(=O)Nc2cccnc21 (centres unmarked)"
numeric_value = 99

[[record]]
molecule = "CC(C)C(Oc1ccc(C(F)(F)F)cc1)C(=O)N1CC(=O)Nc2cccnc21 (centres unmarked)"
numeric_value = 98

[[record]]
molecule = "CCC(Oc1ccc(OC(F)(F)F)cc1)C(=O)N1CC(=O)Nc2ccc(-c3ccn(C)n3)nc21 (centres unmarked)"
numeric_value = 100

[[record]]
molecule = "CCC(Oc1ccc(C(C)C)cc1)C(=O)N1CC(=O)Nc2cccnc21 (centres unmarked)"
numeric_value = 98

[[record]]
molecule = "CCC(Nc1ccc(OC(F)(F)F)cc1)C(=O)N1CC(=O)Nc2cccnc21 (centres unmarked)"
numeric_value = 97

[[record]]
molecule = "CCC(Oc1ccc(C(F)(F)F)cc1)C(=O)N1CC(=O)Nc2cccnc21 (centres unmarked)"
numeric_value = 98

[[record]]
molecule = "COc1cnc2c(c1)NC(=O)CN2C(=O)C(Oc1ccc(-n2cccn2)c(F)c1)C(C)C (centres unmarked)"
numeric_value = 99

[[record]]
molecule = "CCC(Oc1ccc(OC(F)(F)F)cc1)C(=O)N1CC(=O)Nc2c(C)ccnc21 (centres unmarked)"
numeric_value = 99

[[record]]
molecule = "O=C1CN(C(=O)[C@@H]2CCCN2c2ccc(OC(F)(F)F)cc2)c2ncccc2N1"
numeric_value = 96

[[record]]
molecule = "CCC(Oc1ccc(S(=O)(=O)C(F)(F)F)cc1)C(=O)N1CC(=O)Nc2cccnc21 (centres unmarked)"
numeric_value = 95

